# Tested on: SCC-15;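 further: growth inhibition of SCC-15 cells, read out with a cell viability assay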
# test_name: cells
# Format: functional, cell-based, Homo sapiens
# condition_notes: Homo sapiens, SCC-15
# Description: SANGER: Inhibition of human SCC-15 cell growth in a cell viability assay.
pIC50: −log10 of the molar value.
Catalogue of pIC50 readings, one per entry.

molecule | pIC50
Nc1cccc2c1CN(C1CCC(=O)NC1=O)C2=O (configuration not stated) [LENALIDOMIDE] | < 5.30

Exam item: Name the reported pIC50 value associated with the molecule CCN(CC)CCCCNc1ncc2cc(-c3cc(OC)cc(OC)c3)c(NC(=O)NC(C)(C)C)nc2n1
Marked response: < 5.70

Exam item: Name the reported pIC50 value associated with the molecule COc1cc2c(Nc3ccc(NC(=O)c4ccccc4)cc3)ncnc2cc1OCCCN1CCOCC1
Marked response: 5.43

Exam item: Name the reported pIC50 value associated with the molecule COc1cc2ncn(-c3cc(OCc4ccccc4C(F)(F)F)c(C(N)=O)s3)c2cc1OC [GW843682X]
Marked response: < 6.59

Exam item: Name the reported pIC50 value associated with the molecule CC(C)CCN1c2nc(Nc3cc(F)c(O)c(F)c3)ncc2N(C)C(=O)C1C (configuration not stated)
Marked response: < 5.30

Exam item: Name the reported pIC50 value associated with the molecule COc1cc(N2CCN(C)CC2)ccc1Nc1ncc2c(n1)N(C)c1ccccc1C(=O)N2C
Marked response: < 5.10

Exam item: Name the reported pIC50 value associated with the molecule Nc1ccn([C@@H]2O[C@H](CO)[C@@H](O)C2(F)F)c(=O)n1
Marked response: 6.92
